Please respond with reported viability, T/C for every item in the list.
Tested on: K24384-001-R-PDC complex spheroid viability;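 further: spheroids exposed to agents for seven days before luminescence viability reading; 100% = DMSO vehicle control viability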
Experiment: Anticancer human tumor K24384-001-R-PDC patient-derived pancreatic adenocarcinoma cell line growth inhibition
Details: second compound 0.1 µM; first compound 0.003 µM; active compounds read low
Give bare numbers, in %.

Would you please look over these solved cases?
molecule | studyTarget | measureUnit | viability, T/C
CCc1c2c(nc3ccc(O)cc13)-c1cc3c(c(=O)n1C2)COC(=O)[C@]3(O)CC + NC1CC1c1ccc(-c2cccc(O)c2)cc1 | K24384-001-R-PDC complex spheroid viability | % | 32.7
Nc1ncn(C2CC(O)C(CO)S2)c(=O)n1 (stereo unspecified) + NC1CC1c1ccc(-c2cccc(O)c2)cc1 | K24384-001-R-PDC complex spheroid viability | % | 133
Nc1ccn(C2OC(CO)C(O)C2(F)F)c(=O)n1 (stereo unspecified) + NC1CCC(NC2CC2c2ccccc2)CC1 | K24384-001-R-PDC complex spheroid viability | % | 68.3
Nc1ccn(C2OC(CO)C(O)C2(F)F)c(=O)n1 (stereo unspecified) + NC1CC1c1ccc(-c2cccc(O)c2)cc1 | K24384-001-R-PDC complex spheroid viability | % | 72.9

// for each molecule below, give its viability, T/C
1. CCc1c2c(nc3ccc(O)cc13)-c1cc3c(c(=O)n1C2)COC(=O)[C@]3(O)CC + NC1CCC(NC2CC2c2ccccc2)CC1
2. Nc1ncn(C2CC(O)C(CO)S2)c(=O)n1 (stereo unspecified) + NC1CCC(NC2CC2c2ccccc2)CC1

Output:
1: 36.2; 2: 85.4

Data credit: PubChem BioAssay AID1918949
